Measured Zeta-pot. / mV by item
# Protocol Notes: Zeta-potential measurement
# Type: physicochemical
# Test Parameters: zeta potential of peptide; Fig S15 source data
# output: bare number, implied unit mV

Examples with their reported Zeta-pot. / mV follow.
| Substance | Reported |
| --- | --- |
| EIKIQINM [TM73] | -22.33 |
| CKFKFQFNMW [KB14] | 18.4 |
| RGDCKFKFQF [TM64/ CN15] | 13.87 |

As a next step, examine the substance that follows.
Query :: Dear colleague, I am looking for the recorded Zeta-pot. / mV of the following substance: KFKFQFN [BL7]
Result :: 12.7
